These measurements were taken from patent US20250171821A1.

# pKd listing for each entry below
molecular target: T1, PHD2/EGLN1 (HIF-prolyl hydroxylase 2) (human, UniProt Q9GZT9 181-426); assay: fluorescence polarization; PHD protein titrated into 200 nM FITC-labeled peptide; single site fit
T1 construct: The protein was expressed as a cleavable GST fusion and the eluate of the GST column was used; also called PHD enzyme; PHD protein
T1 sequence (Q9GZT9 other isoform, or with tags, fused parts or gaps limits assumed): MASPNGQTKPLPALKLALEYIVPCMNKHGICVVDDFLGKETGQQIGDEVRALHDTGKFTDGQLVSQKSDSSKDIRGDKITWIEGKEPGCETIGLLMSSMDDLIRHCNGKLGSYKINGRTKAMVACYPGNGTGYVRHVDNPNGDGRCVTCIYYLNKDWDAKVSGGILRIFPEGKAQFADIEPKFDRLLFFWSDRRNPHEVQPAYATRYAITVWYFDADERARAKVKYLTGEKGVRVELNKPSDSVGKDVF
Where no end group is shown, it is not given here.
Field pKd (float): negative decimal logarithm of the concentration in molar.

{"columns": ["BINDER", "NUMERIC RESULT"],
 "data": [
  ["ELDLETLAPYIPMDGEDFQL (also: FITC label, position not given here, The FP assay used 200 nM of FITC-labeled peptide; also called EPAS1-derived peptide) [EPAS1 peptide (FITC-labeled)]", 5.40]
]}

// next item, pKd requested
Q: So what's the measured pKd for this one? DLDLEALAPYIPADDDFQLR (also: FITC label, position not given here, The FP assay used 200 nM of FITC-labeled peptide; also called HIF1 peptide) [HIF peptide (FITC-labeled)]
Ans: 5.15
